B1: RHOBTB3 (parent)
chain: DSCCPAGIFQAMCLLICAEMYQVS

Variants of: B1
protocol: protein stability index of a GFP-peptide fusion (GPS, HEK-293T) (PSI 1-6); higher = more stable;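 further: lentivirally expressed fusions sorted by FACS into six bins by GFP to DsRed ratio, PSI derived from sequencing read proportions per bin multiplied by bin number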
condition-context: c terminus: a fixed tail appended
Answer each item with its documented protein stability index.

Example entries begin here.
DSCCPTGIFQAMCLLICAEMYQVS [A6T]    2.9
DSCCPAGIFQKMCLLICAEMYQVS [A11K]    1.32
DSCCPAGIFQAMCLLIMAEMYQVS [C17M]    5.55
DSCCPAGIFQAMCLLICAKMYQVS [E19K]    2.48
DSCCPAGIFQAMCLMICAEMYQVS [L15M]    2.19

List the reported protein stability index of each variant below.
1. DSCCPAGIFQAMCLLHCAEMYQVS [I16H]
2. DSCCPAGIFQAMALLICAEMYQVS [C13A]

Response:
1: 2.82; 2: 3.91

List the reported protein stability index of each variant below.
1. DSCCPAGIFQAMCTLICAEMYQVS [L14T]
2. DSCCPAGIFQAMCLLICAEMYSVS [Q22S]
3. DSCCPAGIFDAMCLLICAEMYQVS [Q10D]
4. DSCCPAGIFQAMCLLICHEMYQVS [A18H]
5. DSCCPAGIFQAMCLLICAEMEQVS [Y21E]
6. DSCCPAGIFQAMNLLICAEMYQVS [C13N]

Response:
[2.78, 2.99, 2.75, 3.29, 2.38, 3.63]

List the reported protein stability index of each variant below.
1. DSCCPAGIFQAMCLLICAEMYWVS [Q22W]
2. DSCCPAGIFQAMCLLICAEVYQVS [M20V]
3. DSCFPAGIFQAMCLLICAEMYQVS [C4F]
4. DSCHPAGIFQAMCLLICAEMYQVS [C4H]
5. DSCCPAGIFQAMCLLICAEMYYVS [Q22Y]
6. DSCCPAGIFQAMCLLICAEMYQVF [S24F]
7. DSCCPAGIFQAMCLLICAEMYQVA [S24A]
8. DSCCPAGIFQAMCLLICALMYQVS [E19L]

Response:
1: 2.54; 2: 2.24; 3: 2.94; 4: 4.64; 5: 2.33; 6: 2.53; 7: 3.22; 8: 5.4

Request: I am curious: what protein stability index value has been reported for DSTCPAGIFQAMCLLICAEMYQVS [C3T] ?
Response: 1.39
